Attribution: the supplement of paper PMC6555819

tested on: LXRa:RXRa (NR concentration 270 nM, RXRa partner concentration 90 nM); assay: PBM binding z-score (relative to random genomic background probes); higher = stronger binding; sequences stand for … in GC…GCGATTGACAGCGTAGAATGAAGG
Entry flag: 1 (yes) if PBM binding z-score reaches 2; 0 (no) if it does not.

1) CCTTACGGGTCACTGGCAGGTTATAGCATTTGGA = 1 (yes)
2) CTACCAAGGTGAACAAGGTCGTTGCTTACTATTC = 0 (no)
3) CGAACTAGGTCAGAACAGGCCAGTGAAGGATGAT = 0 (no)
4) TGAATGAGGTTAAAGATAAGGGAACGTGGCGTCG = 1 (yes)
5) TCATCTAGGTAAACAGGTGAAAGTCCGTAAGTTA = 0 (no)
6) ATGGAAAGGTCGAAGGTGAGTATACCCACCCGAA = 1 (yes)
7) CGTCCTAGGTCAGAGAGGTCAGTGAATGCCGAGT = 1 (yes)
8) ATCGAAAGGTCGACGAGGTGAGTATCCACCGTTT = 1 (yes)
9) CTCGAAAGGTGGGTTGAGGTGAGTATACGGATAA = 0 (no)
10) AGTCAAAGTTCATCGAGGTAACGTAAGATATGCT = 1 (yes)
11) AGTCAAAGTTCACTAGGTATCGTAAGATTCAGCT = 1 (yes)
12) TCATATAGGTAAATGCTCGGTGAAAGTCCGATCT = 0 (no)
13) CGAACTAGGTCATTGAGAGGACAGTGAATAGTAA = 1 (yes)
14) CGTCCAAGGTCATAGGAGGCCAGTGAAGACAGAT = 1 (yes)
15) CGAACTAGGTCATTGACAGGACAGTGCATAGTAA = 1 (yes)
16) CGTCATAGTTCAACTAAGGTAACGTAAAGCACGC = 1 (yes)
